Provenance of the data: patent US10052320B2

Biological target: FGFR1 (h) (Homo sapiens)
Sequence (P11362 22-822): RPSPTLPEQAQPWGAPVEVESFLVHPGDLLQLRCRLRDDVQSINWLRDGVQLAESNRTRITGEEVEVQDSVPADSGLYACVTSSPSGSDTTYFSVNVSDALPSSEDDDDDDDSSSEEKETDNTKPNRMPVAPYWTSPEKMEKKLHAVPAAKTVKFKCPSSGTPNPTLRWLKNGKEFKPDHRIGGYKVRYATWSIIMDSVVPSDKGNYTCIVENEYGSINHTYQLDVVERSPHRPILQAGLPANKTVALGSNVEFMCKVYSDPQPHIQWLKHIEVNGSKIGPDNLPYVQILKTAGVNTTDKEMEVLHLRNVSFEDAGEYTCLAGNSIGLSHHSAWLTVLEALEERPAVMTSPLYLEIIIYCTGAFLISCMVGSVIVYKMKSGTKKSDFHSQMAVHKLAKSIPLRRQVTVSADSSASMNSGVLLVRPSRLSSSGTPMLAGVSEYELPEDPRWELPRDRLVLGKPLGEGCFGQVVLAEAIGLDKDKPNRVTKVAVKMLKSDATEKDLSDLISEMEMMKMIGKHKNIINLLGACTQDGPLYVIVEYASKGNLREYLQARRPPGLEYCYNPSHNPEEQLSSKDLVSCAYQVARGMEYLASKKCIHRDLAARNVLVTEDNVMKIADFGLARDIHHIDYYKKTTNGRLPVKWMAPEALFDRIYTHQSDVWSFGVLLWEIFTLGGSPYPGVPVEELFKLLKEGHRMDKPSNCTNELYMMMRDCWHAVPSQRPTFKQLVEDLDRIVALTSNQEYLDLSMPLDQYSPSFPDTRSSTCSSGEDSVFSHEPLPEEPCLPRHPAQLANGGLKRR
Test: FGFR1 (enzymatic assay), TR-FRET
Assay type: biochemical
Conditions: read-out: FGFR 1 pIC50 (converted)
endpoint: log10 of IC50 (log10 of the value in nM)

| smiles-notation | system-tested | log10 of IC50 |
| --- | --- | --- |
| COc1cc(OC)cc(N(CC2CC2)c2ccc3ncc(Nc4nccs4)nc3c2)c1 | FGFR1 (h) (Homo sapiens) | 2.64 |
| COc1cc(OC)cc(N(CCNC(C)C)c2ccc3ncc(-c4ccc(N5CCN(C)CC5)nc4)nc3c2)c1 | FGFR1 (h) (Homo sapiens) | -0.09 |
| COc1cc(OC)cc(N(CCCNCCCO)c2ccc3ncc(-c4ccnc(C(=O)NCCCCN)c4)nc3c2)c1 | FGFR1 (h) (Homo sapiens) | 0.64 |
| COc1cc(OC)cc(N(CCO)c2ccc3ncc(-c4cccnc4)nc3c2)c1 | FGFR1 (h) (Homo sapiens) | 1.00 |
| COc1cc(OC)cc(N(CC2CC2)c2ccc3ncc(NC(=O)c4ccc(F)cc4)nc3c2)c1 | FGFR1 (h) (Homo sapiens) | 3.38 |
| COc1cc(OC)cc(N(CCNC(C)C)c2ccc3ncc(-c4ccn[nH]4)nc3c2)c1 | FGFR1 (h) (Homo sapiens) | 0.45 |
| COc1cc(OC)cc(N(CCO)c2ccc3ncc(C4=CCN(C(=O)OC(C)(C)C)CC4)nc3c2)c1 | FGFR1 (h) (Homo sapiens) | 0.71 |
| COCCN(c1cc(OC)cc(OC)c1)c1ccc2ncc(-c3ccn(C)c3)nc2c1 | FGFR1 (h) (Homo sapiens) | 0.64 |
| COc1cc(OC)cc(N(CCO)c2ccc3ncc(C4=CCN(C(=O)OC(C)(C)C)C4)nc3c2)c1 | FGFR1 (h) (Homo sapiens) | 1.47 |
| COc1cc(OC)cc(N(CCCO)c2ccc3ncc(-c4ccnc(F)c4)nc3c2)c1 | FGFR1 (h) (Homo sapiens) | 1.10 |
| COc1cc(OC)cc(N(CCCO)c2ccc3ncc(-c4ccnc(C(=O)N5CCOCC5)c4)nc3c2)c1 | FGFR1 (h) (Homo sapiens) | 1.20 |
| COc1cc(OC)cc(N(CCNC(C)C)c2ccc3ncc(-n4cnc(CO)c4)nc3c2)c1 | FGFR1 (h) (Homo sapiens) | 0.35 |
| COc1cc(OC)cc(N(CC2CC2)c2ccc3ncc(-n4cnc(C)c4)nc3c2)c1 | FGFR1 (h) (Homo sapiens) | 1.71 |
| COc1cc(OC)cc(N(CC2CC2)c2ccc3ncc(-n4cncn4)nc3c2)c1 | FGFR1 (h) (Homo sapiens) | 2.88 |
| COc1cc(OC)cc(N(CCNC(C)C)c2ccc3ncc(-c4ccncc4)nc3c2)c1 | FGFR1 (h) (Homo sapiens) | 0.33 |
| COc1cc(OC)cc(N(CCN2CCOCC2)c2ccc3ncc(-c4ccc(N)nc4)nc3c2)c1 | FGFR1 (h) (Homo sapiens) | 0.94 |

====

Target: Ba/F3-FGFR4-transfected cells (Homo sapiens, UniProt P22455)
Sequence (P22455 whole entry, change not shown): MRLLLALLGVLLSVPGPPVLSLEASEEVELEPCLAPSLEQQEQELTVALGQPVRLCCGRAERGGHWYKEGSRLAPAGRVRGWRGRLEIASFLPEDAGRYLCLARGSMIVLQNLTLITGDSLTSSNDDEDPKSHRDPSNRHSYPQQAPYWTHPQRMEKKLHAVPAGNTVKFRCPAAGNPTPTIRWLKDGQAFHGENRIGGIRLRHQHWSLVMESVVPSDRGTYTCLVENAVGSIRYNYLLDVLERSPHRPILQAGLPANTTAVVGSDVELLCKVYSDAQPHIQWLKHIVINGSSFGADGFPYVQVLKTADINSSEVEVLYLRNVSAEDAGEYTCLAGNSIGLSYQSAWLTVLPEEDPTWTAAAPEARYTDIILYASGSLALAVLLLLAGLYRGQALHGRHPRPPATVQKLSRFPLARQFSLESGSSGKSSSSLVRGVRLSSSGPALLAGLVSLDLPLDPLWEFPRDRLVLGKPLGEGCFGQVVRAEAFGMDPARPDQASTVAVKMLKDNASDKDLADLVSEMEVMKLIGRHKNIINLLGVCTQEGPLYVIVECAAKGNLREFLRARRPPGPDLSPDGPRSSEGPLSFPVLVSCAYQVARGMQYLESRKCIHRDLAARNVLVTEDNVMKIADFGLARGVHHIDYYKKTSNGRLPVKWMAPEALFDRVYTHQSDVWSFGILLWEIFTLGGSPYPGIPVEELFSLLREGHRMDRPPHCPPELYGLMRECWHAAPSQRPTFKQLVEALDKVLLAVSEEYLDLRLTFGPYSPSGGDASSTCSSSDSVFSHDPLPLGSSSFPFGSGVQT
Assay: Ba/F3-FGFR4 cellular proliferation assay, Alamar Blue
Assay type: cell-based

| compound | system-tested | BAF3-FGFR4 pIC50 |
| --- | --- | --- |
| COc1cc(OC)cc(N(CC2CC2)c2ccc3ncc(Nc4nncs4)nc3c2)c1 [Compound 102] | Ba/F3-FGFR4-transfected cells (Homo sapiens, UniProt P22455) | <5 |
| COc1cc(OC)cc(N(CCO)c2ccc3ncc(-c4ccc(N5CCN(C(=O)OC(C)(C)C)CC5)cc4)nc3c2)c1 [Compound 156] | Ba/F3-FGFR4-transfected cells (Homo sapiens, UniProt P22455) | 5.4 |
| COCCCN(c1cc(OC)cc(OC)c1)c1ccc2ncc(-c3ccn(C)c3)nc2c1 [Compound 3] | Ba/F3-FGFR4-transfected cells (Homo sapiens, UniProt P22455) | 6.4 |
| COc1cc(OC)cc(N(CC2CC2)c2ccc3ncc(-n4cncn4)nc3c2)c1 [Compound 50] | Ba/F3-FGFR4-transfected cells (Homo sapiens, UniProt P22455) | <5 |
| COc1cc(OC)cc(N(CCN2CCOCC2)c2ccc3ncc(-c4ccc(NC(=O)N5CCOCC5)nc4)nc3c2)c1 [Compound 35] | Ba/F3-FGFR4-transfected cells (Homo sapiens, UniProt P22455) | 6.0 |
| CNC(=O)OCCN(c1cc(OC)cc(OC)c1)c1ccc2ncc(-c3ccc(NC(=O)OC(C)(C)C)nc3)nc2c1 [Compound 80] | Ba/F3-FGFR4-transfected cells (Homo sapiens, UniProt P22455) | <5 |
| COc1cc(OC)cc(N(CCCO)c2ccc3ncc(-c4cnc(N5CCN(C)CC5)c(C)c4)nc3c2)c1 [Compound 135] | Ba/F3-FGFR4-transfected cells (Homo sapiens, UniProt P22455) | 6.1 |
| COc1cc(OC)cc(N(CCO)c2ccc3ncc(-c4ccccc4CCO)nc3c2)c1 [Compound 151] | Ba/F3-FGFR4-transfected cells (Homo sapiens, UniProt P22455) | <5 |
| COc1cc(OC)cc(N(CCCNC(C)C)c2ccc3ncc(-c4ccnc(NC(=O)OC(C)(C)C)c4)nc3c2)c1 [Compound 137] | Ba/F3-FGFR4-transfected cells (Homo sapiens, UniProt P22455) | 6.1 |
| COc1cc(OC)cc(N(CCCO)c2ccc3ncc(-c4ccnc(-c5ccnc(Cl)c5)c4)nc3c2)c1 [Compound 133] | Ba/F3-FGFR4-transfected cells (Homo sapiens, UniProt P22455) | <5 |
| COc1cc(OC)cc(N(CC2CC2)c2ccc3ncc(-c4nnn[nH]4)nc3c2)c1 [Compound 41] | Ba/F3-FGFR4-transfected cells (Homo sapiens, UniProt P22455) | <5 |
| COc1cc(OC)cc(N(CC2CC2)c2ccc3ncc(-n4nccc4C)nc3c2)c1 [Compound 62] | Ba/F3-FGFR4-transfected cells (Homo sapiens, UniProt P22455) | <5 |
| CNC(=O)c1cc(-c2cnc3ccc(N(CCNCC(F)(F)F)c4cc(OC)cc(OC)c4)cc3n2)ccn1 [Compound 113] | Ba/F3-FGFR4-transfected cells (Homo sapiens, UniProt P22455) | 5.5 |
| COc1cc(OC)cc(N(CCCO)c2ccc3ncc(-c4ccnc(F)c4)nc3c2)c1 [Compound 142] | Ba/F3-FGFR4-transfected cells (Homo sapiens, UniProt P22455) | 5.6 |
| COc1cc(OC)cc(N(CC2CC2)c2ccc3ncc(-c4nccs4)nc3c2)c1 [Compound 97] | Ba/F3-FGFR4-transfected cells (Homo sapiens, UniProt P22455) | <5 |
| CCOC(=O)c1ncn(-c2cnc3ccc(N(CC4CC4)c4cc(OC)cc(OC)c4)cc3n2)c1C [Compound 65] | Ba/F3-FGFR4-transfected cells (Homo sapiens, UniProt P22455) | <5 |
| COc1cc(OC)cc(N(CCO)c2ccc3ncc(C4=CCN(C(=O)OC(C)(C)C)CC4)nc3c2)c1 [Compound 178] | Ba/F3-FGFR4-transfected cells (Homo sapiens, UniProt P22455) | 5.9 |
| COc1cc(OC)cc(N(CC2CC2)c2ccc3ncc(-c4ccn[nH]4)nc3c2)c1 [Compound 58] | Ba/F3-FGFR4-transfected cells (Homo sapiens, UniProt P22455) | <5 |
| COc1cc(OC)cc(N(CCO)c2ccc3ncc(-c4ccc(N)nc4)nc3c2)c1 [Compound 106] | Ba/F3-FGFR4-transfected cells (Homo sapiens, UniProt P22455) | 6.3 |
| COc1cc(OC)cc(N(CCCNCC(F)(F)F)c2ccc3ncc(-c4ccnc(C(=O)NCCCN)c4)nc3c2)c1 [Compound 148] | Ba/F3-FGFR4-transfected cells (Homo sapiens, UniProt P22455) | <5 |
| COc1cc(OC)cc(N(CCCO)c2ccc3ncc(-c4ccc(N5CCNCC5)nc4)nc3c2)c1 [Compound 48] | Ba/F3-FGFR4-transfected cells (Homo sapiens, UniProt P22455) | 6.5 |
| COc1cc(OC)cc(N(CC2CC2)c2ccc3ncc(-n4ccnc4C)nc3c2)c1 [Compound 32] | Ba/F3-FGFR4-transfected cells (Homo sapiens, UniProt P22455) | <5 |
| COc1cc(OC)cc(N(CCO)c2ccc3ncc(-c4ccnc(C(=O)NCCCCCN)c4)nc3c2)c1 [Compound 138] | Ba/F3-FGFR4-transfected cells (Homo sapiens, UniProt P22455) | 5.1 |
| COc1cc(OC)cc(N(CC2CC2)c2ccc3ncc(-c4c[nH]cn4)nc3c2)c1 [Compound 39] | Ba/F3-FGFR4-transfected cells (Homo sapiens, UniProt P22455) | <5 |
| COc1cc(OC)cc(N(CCNC(C)C)c2ccc3ncc(-c4ccn[nH]4)nc3c2)c1 [Compound 189] | Ba/F3-FGFR4-transfected cells (Homo sapiens, UniProt P22455) | 6.23 |
| COc1cc(OC)cc(N(CCCO)c2ccc3ncc(-c4ccnc(NC(=O)OC(C)(C)C)c4)nc3c2)c1 [Compound 128] | Ba/F3-FGFR4-transfected cells (Homo sapiens, UniProt P22455) | <5 |
| COc1cc(OC)cc(N(CC#Cc2ncccc2OC)c2ccc3ncc(-c4cccnc4)nc3c2)c1 [Compound 183] | Ba/F3-FGFR4-transfected cells (Homo sapiens, UniProt P22455) | ~6.5 |
| COc1cc(OC)cc(N(CCCNCC(=O)O)c2ccc3ncc(-c4ccnc(C(=O)NCCCCN)c4)nc3c2)c1 [Compound 44] | Ba/F3-FGFR4-transfected cells (Homo sapiens, UniProt P22455) | <5.35 |
| CO/N=C(\C)c1cnc2ccc(N(CCO)c3cc(OC)cc(OC)c3)cc2n1 [Compound 29] | Ba/F3-FGFR4-transfected cells (Homo sapiens, UniProt P22455) | <5 |
| COc1cc(OC)cc(N(CCNC(C)C)c2ccc3ncc(C(=O)N4CCN(C)CC4)nc3c2)c1 [Compound 179] | Ba/F3-FGFR4-transfected cells (Homo sapiens, UniProt P22455) | <5 |
| COc1cc(OC)cc(N(CC2CC2)c2ccc3ncc(-c4cnco4)nc3c2)c1 [Compound 55] | Ba/F3-FGFR4-transfected cells (Homo sapiens, UniProt P22455) | <5 |
